Hello, the source for this data is patent EP4667464A1, in case you need it.

target: KRAS G12C::SOS1 (Homo sapiens, UniProt Q07889); construct: purchased CISBIO 64KRASG12PEH; test: KRAS G12C::SOS1 protein-protein interaction (PPI) inhibition assay (HTRF); assay type: binding; conditions: 8 concentrations from 3 µM, three replicates; read-out: KRAS G12C::SOS1 PPI
Sequence (Q07889 whole entry, stated change not applied): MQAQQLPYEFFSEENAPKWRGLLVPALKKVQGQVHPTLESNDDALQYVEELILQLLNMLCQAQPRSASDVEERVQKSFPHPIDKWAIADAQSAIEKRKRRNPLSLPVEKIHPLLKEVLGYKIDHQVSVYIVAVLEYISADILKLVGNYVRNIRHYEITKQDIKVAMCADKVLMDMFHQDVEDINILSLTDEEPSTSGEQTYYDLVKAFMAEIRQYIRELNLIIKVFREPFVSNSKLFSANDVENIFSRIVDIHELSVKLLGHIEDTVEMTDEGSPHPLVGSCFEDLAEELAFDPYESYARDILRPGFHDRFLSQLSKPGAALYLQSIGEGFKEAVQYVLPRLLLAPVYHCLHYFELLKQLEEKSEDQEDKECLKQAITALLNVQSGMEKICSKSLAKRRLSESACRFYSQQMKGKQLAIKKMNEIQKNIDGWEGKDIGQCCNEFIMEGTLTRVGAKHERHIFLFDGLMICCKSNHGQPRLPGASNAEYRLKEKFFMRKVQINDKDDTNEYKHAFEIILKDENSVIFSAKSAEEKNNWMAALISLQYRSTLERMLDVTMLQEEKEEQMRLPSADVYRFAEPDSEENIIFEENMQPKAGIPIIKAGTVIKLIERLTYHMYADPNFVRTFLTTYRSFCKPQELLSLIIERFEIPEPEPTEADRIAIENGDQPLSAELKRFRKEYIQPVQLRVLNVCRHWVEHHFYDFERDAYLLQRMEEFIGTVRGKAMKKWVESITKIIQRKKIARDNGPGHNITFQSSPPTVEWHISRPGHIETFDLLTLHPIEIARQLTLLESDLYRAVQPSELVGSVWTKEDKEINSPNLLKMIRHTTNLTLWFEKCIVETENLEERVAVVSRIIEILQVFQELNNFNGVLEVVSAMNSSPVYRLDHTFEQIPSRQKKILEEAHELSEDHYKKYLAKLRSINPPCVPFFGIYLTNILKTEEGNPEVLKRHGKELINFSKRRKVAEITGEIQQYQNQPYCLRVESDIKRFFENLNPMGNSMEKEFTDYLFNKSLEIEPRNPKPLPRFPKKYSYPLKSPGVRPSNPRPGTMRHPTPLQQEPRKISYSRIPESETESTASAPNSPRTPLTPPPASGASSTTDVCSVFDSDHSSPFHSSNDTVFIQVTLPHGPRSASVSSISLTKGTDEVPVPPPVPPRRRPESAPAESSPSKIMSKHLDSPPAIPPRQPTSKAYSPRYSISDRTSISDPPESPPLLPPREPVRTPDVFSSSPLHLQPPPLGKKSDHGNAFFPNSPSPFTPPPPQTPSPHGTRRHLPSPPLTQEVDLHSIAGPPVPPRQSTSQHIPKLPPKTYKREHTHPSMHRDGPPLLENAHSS
Measured metric: IC50

Notebook: `C[C@@H](NC(=O)c1ccc(=O)n(-c2cncc(-c3cnnn3C3COC3)c2)n1)c1cccc(C(F)(F)F)c1F` , IC50 read as 50 to 150 nM

Sample `CCn1nccc1-c1cncc(-n2nc(C(=O)N[C@H](C)c3cccc(C(F)(F)CO)c3F)ccc2=O)c1` ; IC50 observed: > 150 nM

Entry `C[C@@H](NC(=O)c1ccc(=O)n(-c2cnnc(-c3cnnn3C)c2)n1)c1cccc(C(F)(F)CO)c1F` — recorded IC50 = 50 to 150 nM

Measured IC50, `C[C@@H](NC(=O)c1ccc(=O)n(-c2cncc(-c3cnnn3C)c2)n1)c1cccc(C(F)(F)CF)c1F` : 50 to 150 nM

`Cc1cc(C(=O)N[C@H](C)c2cc(N)cc(C(F)(F)F)c2F)nn(-c2cncc(-c3cnnn3C)c2)c1=O` yielded IC50 of < 50 nM

Lab book: IC50 of `C[C@@H](NC(=O)c1ccc(=O)n(-c2cnnc(-c3ccnn3C)c2)n1)c1cccc(C(F)(F)F)c1F` noted as > 150 nM

IC50 for `C[C@@H](NC(=O)c1ccc(=O)n(-c2cncc(-c3cnnn3C3CNC3)c2)n1)c1cccc(C(F)(F)F)c1F` is < 50 nM

Notebook: `CCn1nncc1-c1cncc(-n2nc(C(=O)N[C@H](C)c3cccc(C(F)(F)F)c3F)ccc2=O)c1` , IC50 read as 50 to 150 nM

Noted for `Cc1ncc(-n2nc(C(=O)N[C@H](C)c3cccc(C(F)F)c3F)ccc2=O)cc1-c1cnnn1C` : its IC50 reads > 150 nM

IC50 measured on `C[C@@H](NC(=O)c1ccc(=O)n(-c2cncc(-c3cnnn3C)c2)n1)c1cc(N)cc(C(F)(F)F)c1` = < 50 nM

Field IC50 (entry `C[C@@H](NC(=O)c1cc(C(F)(F)F)c(=O)n(-c2cncc(-c3cnnn3C)c2)n1)c1cccc(C(F)(F)F)c1F` ) reads < 50 nM

Form field IC50, entry `C[C@@H](NC(=O)c1ccc(=O)n(-c2cc(-c3cnnn3C)cnc2F)n1)c1cccc(C(F)(F)F)c1F` : < 50 nM

The value of IC50 measured for the molecule `C[C@@H](NC(=O)c1cc(C#N)c(=O)n(-c2cc(-c3cnnn3C)cnc2F)n1)c1cccc(C(F)(F)CO)c1F` turned out to be < 50 nM

# molecule `C[C@@H](NC(=O)c1ccc(=O)n(-c2cncc(-c3cnnn3C3CC3)c2)c1)c1cccc(C(F)(F)F)c1F` ; its IC50 = < 50 nM

Per the records, this molecule ( `[2H][C@](C)(NC(=O)c1ccc(=O)n(-c2cncc(-c3cnnn3C)c2)n1)c1cccc(C(F)(F)F)c1F` ) has IC50 equal to < 50 nM

The recorded IC50 for C[C@@H](NC(=O)c1ccc(=O)n(-c2cncc(-c3cnnn3C)c2)n1)c1cccc(C2(CF)CC2)c1F (single isomer, unassigned) is > 150 nM

Kindly note the recorded IC50 for `[2H]C([2H])([2H])c1cc(C(=O)N[C@H](C)c2cccc(C(F)(F)F)c2F)nn(-c2cncc(-c3cnnn3C)c2)c1=O` , which is 50 to 150 nM

molecule `C[C@@H](NC(=O)c1ccc(=O)n(-c2cncc(-c3cnnn3[C@@H]3CCNC3)c2)n1)c1cccc(C(F)(F)F)c1F` , IC50 observed: < 50 nM

IC50 reading for `C[C@@H](NC(=O)c1cc(C2=CCCCC2)c(=O)n(-c2cncc(-c3cnnn3C)c2)c1)c1cccc(C(F)(F)F)c1F` : < 50 nM

Documented IC50 of `CNc1ncc(-n2nc(C(=O)N[C@H](C)c3cccc(C(F)(F)F)c3F)ccc2=O)cc1-c1cnnn1C` : 50 to 150 nM

Documented IC50 of `[2H]C([2H])([2H])n1nncc1-c1cnc(F)c(-n2nc(C(=O)N[C@H](C)c3cccc(C(F)(F)F)c3F)cc(C#N)c2=O)c1` : 50 to 150 nM

The measured IC50 associated with `[2H]C([2H])([2H])[C@@H](NC(=O)c1ccc(=O)n(-c2cncc(-c3cnnn3C)c2)n1)c1cccc(C(F)(F)F)c1F` reads 50 to 150 nM

response.value for `[2H]C([2H])([2H])n1nncc1-c1cncc(-n2nc(C(=O)N[C@H](C)c3cccc(C(F)F)c3F)ccc2=O)c1` (field: IC50) = < 50 nM

The reported value for `Cc1c([C@@H](C)NC(=O)c2ccc(=O)n(-c3cncc(-c4ccnn4C)c3)n2)cc(N)cc1C(F)(F)F` in terms of IC50 is < 50 nM

Memo: `C[C@@H](NC(=O)c1ccc(=O)n(-c2cncc(-c3cnnn3C3CN(C)C3)c2)n1)c1cccc(C(F)(F)F)c1F` , reported IC50: < 50 nM

`Cc1c([C@@H](C)NC(=O)c2cc(C)c(=O)n(-c3cncc(-c4cnnn4C)c3)n2)cc(N)cc1C(F)(F)F` yielded IC50 of < 50 nM

Noted for `C[C@@H](NC(=O)c1ccc(=O)n(-c2cncc(-c3cnnn3C3CN(S(C)(=O)=O)C3)c2)n1)c1cccc(C(F)(F)F)c1F` : its IC50 reads < 50 nM
